For each entry below, report its TGI value.
System: NCI-H522 lung
Test: NCI tumour cell line growth inhibition, 48 h
Enter your answer as a number in µM; do not include the unit.

Bench note: what TGI did S=c1sscc1N1CCSc2ssc(=S)c21 show?
59.7

Bench note: what TGI did O=c1cc(-c2cccc(Br)c2)[nH]c2cc3c(cc12)OCO3 show?
18.3

Bench note: what TGI did CCC(=O)Oc1ccc(/C=N/NC(N)=S)nc1 show?
76.5

Bench note: what TGI did COc1cc2c(cc1O)N=C[C@@H]1CCC(O)N1C2=O (mixture of isomers) show?
0.636

Bench note: what TGI did O=C(N1CCN(c2ccccc2)CC1)N(C(=O)C1(c2ccc(Cl)cc2)CCCC1)S(=O)(=O)c1ccccc1 show?
36.6

----------
For each entry below, report its TGI value.
System: OVCAR-8 ovarian
Assay: NCI tumour cell line growth inhibition, 48 h
Enter your answer as a number in µM; do not include the unit.

Bench note: what TGI did CCCCCCCCC(=O)NCCN(CCN)C(=O)CCCCCCCC show?
26.8

Bench note: what TGI did O=C1C=C(OCC=C(Cl)Cl)C(=O)c2ccccc21 show?
15.8

Bench note: what TGI did O=S1(=O)C=C(c2ccccc2)C(c2ccccc2)=C1 show?
3.19

Bench note: what TGI did O=C(N1CCN(c2ccccc2)CC1)N(C(=O)C1(c2ccc(Cl)cc2)CCCC1)S(=O)(=O)c1ccccc1 show?
89.4

----------
For each entry below, report its TGI value.
Tested on: M19-MEL melanoma
Experiment: NCI tumour cell line growth inhibition, 48 h

Bench note: what TGI did C/C(=N\NS(=O)(=O)c1ccccc1)c1ccc[n+]([O-])n1 show?
> 100 µM

Bench note: what TGI did CC1=C(C(=O)NCc2ccccc2)C(c2ccccc2O)C(C(=O)NCc2ccccc2)=C(C)N1 show?
35.7 µM

Bench note: what TGI did CCOc1cc[n+](C(=C=[N-])C#N)cc1 show?
> 100 µM

Bench note: what TGI did N#CC1([N+](=O)[O-])C=C1c1ccccc1 (centres undefined) show?
> 100 µM

Bench note: what TGI did C#CC1(O)CC(c2ccccc2)N(C)C(c2ccccc2)C1 (centres undefined) show?
> 100 µM

Bench note: what TGI did COC(=O)C(C(=O)C(=O)Nc1ccc(N)cc1[N+](=O)[O-])c1nc2ccc(Cl)cc2[nH]c1=O (centres undefined) show?
> 100 µM

Bench note: what TGI did CCOC(=O)C1C(=O)c2cccc(OC)c2C2COC(=O)N12 (centres undefined) show?
> 100 µM

Bench note: what TGI did COC(=O)C(Cc1ccccc1)N=Cc1c(O)c(O)c(C(C)C)c2cc(C)c(-c3c(C)cc4c(C(C)C)c(O)c(O)c(C=NC(Cc5ccccc5)C(=O)OC)c4c3O)c(O)c12 (centres undefined) show?
> 100 µM

Bench note: what TGI did CCN1CCC(O)(/C=C/c2ccc(Cl)cc2)C(C(=O)/C=C/c2ccc(Cl)cc2)C1 (centres undefined) show?
92.9 µM

Bench note: what TGI did N#CC12CC3(CCC1CCC1(C2)OCCO1)OCCO3 (centres undefined) show?
> 100 µM

Bench note: what TGI did C(=NCCN=Cc1cccc2ccccc12)c1cccc2ccccc12 show?
> 100 µM

Bench note: what TGI did N#CCCn1c(CCC(=O)Nc2ccc(Cl)cc2Cl)n[nH]c1=S show?
> 100 µM

Bench note: what TGI did Cc1ccc(NC(=O)CC2C(=O)Nc3ccccc3S2(=O)=O)cc1C (centres undefined) show?
> 100 µM

Bench note: what TGI did OCC(O)C(OC1OC(CO)C(O)C(O)C1O)c1nn(-c2ccc(Cl)cc2)c2nc3cc(Cl)ccc3nc12 (centres undefined) show?
> 100 µM

Bench note: what TGI did NCCSc1nc(N)c2ncn(C3OC(CO)C(O)C3O)c2n1 (centres undefined) show?
> 100 µM

Bench note: what TGI did CN(C)c1ccc(/C=c2\sc3nnc(Cc4ccccc4)n3c2=O)cc1 show?
> 100 µM

Bench note: what TGI did CCC12C=CCN3CCC4(C(=C(C(=O)OC)C1)Nc1ccccc14)[C@H]32 (some centres undefined) show?
> 100 µM

Bench note: what TGI did CCCCCC/C(CC(=O)CCC(=O)NCCc1ccccc1)=N\NC(=O)c1ccc2ccccc2c1O show?
88.4 µM

Bench note: what TGI did COc1ccc([Se]c2ccc(OC)cc2)cc1 show?
> 100 µM

----------
Tested on: SNB-75 CNS
Assay: NCI tumour cell line growth inhibition, 48 h
Reported Metric: GI50

Notebook entry, SNB-75 CNS assay: GI50 of CSc1nc(-c2cccc(NC(=O)CCl)c2)c(C#N)c(=O)n1C = ?
1.19 µM

Notebook entry, SNB-75 CNS assay: GI50 of O=C(N/N=C/c1cccc(O)c1)c1ccc(C(F)(F)F)nc1Nc1cccc(C(F)(F)F)c1 = ?
1.58 µM

Notebook entry, SNB-75 CNS assay: GI50 of O=C1CC2OCC=C3CN4CCC56c7ccccc7N1C5C2C3CC46 (stereo not drawn) (tested in a mixture with another compound) = ?
> 50 mg/L

Notebook entry, SNB-75 CNS assay: GI50 of CNCC1CCn2c(c(C3=C(c4cn(C)c5ccccc45)C(=O)NC3=O)c3ccccc32)C1 (stereo not drawn) = ?
0.972 µM

Notebook entry, SNB-75 CNS assay: GI50 of CC1CC2(C)CC(=O)C1C1C(=O)N(CCN3CCOCC3)C(=O)C12 (stereo not drawn) = ?
> 100 µM

Notebook entry, SNB-75 CNS assay: GI50 of CC1SC(c2cccc(Cl)c2)N(NC(=O)C(O)c2ccccc2)C1=O (stereo not drawn) = ?
79.1 µM

Notebook entry, SNB-75 CNS assay: GI50 of Nc1nc(Cl)c2ncn(Cc3ccc(-c4ccc(CCl)cc4)cc3)c2n1 = ?
10.3 µM

Notebook entry, SNB-75 CNS assay: GI50 of COc1cc2c3c(n(CCCN4CCN(CCO)CC4)c(=O)c2cc1OC)-c1cc2c(cc1C3=O)OCO2 = ?
9.87 µM

----------
Test system: LOX IMVI melanoma
Assay: NCI tumour cell line growth inhibition, 48 h; in the data active = GI50 below about 0.43 µM; inactive = the rest
Give one outcome, nothing more. List: active, inactive

Check the results log: what was the call for COc1ccc(-c2c(C#N)cnc(N)c2-c2nc3cc(C)c(C)cc3[nH]2)cc1 ?
inactive

Check the results log: what was the call for Nc1cc(N)c2nc(-c3ccccc3)c(Oc3ccc(Cl)c(Cl)c3)nc2c1 ?
inactive

Check the results log: what was the call for COC(=O)[C@]1(C)CC[C@]2(C)CC[C@]3(C)C(=CC(=O)[C@@H]4[C@@]5(C)CCC(=O)NC(C)(C)[C@@H]5CC[C@]43C)[C@@H]2C1 ?
inactive

Check the results log: what was the call for COC(=O)CCc1c(/C=C2\N=C(c3ccc[nH]3)C=C2OC)[nH]c(C)c1C(=O)OCc1ccccc1 ?
active

Check the results log: what was the call for NC(N)=N/N=C/c1ccc(Br)cc1 ?
inactive

Check the results log: what was the call for CN1CCN(Cc2ccc(NC(=O)c3[nH]ncc3Nc3cc(OC4CCCC4)ncn3)cc2)CC1 ?
inactive

Check the results log: what was the call for O=C1C=C(OCC=C(Cl)Cl)C(=O)c2ccccc21 ?
inactive

----------
System: NCI/ADR-RES ovarian
Experiment: NCI tumour cell line growth inhibition, 48 h
Reported Metric: TGI

Bench note: what TGI did CSc1nc(Cl)c2c(n1)Sc1nc3ccccc3n1N=C2 show?
55.1 µM

Bench note: what TGI did NC(N)=N/N=C/c1ccc(Br)cc1 show?
10.6 µM

Bench note: what TGI did CC(=O)Oc1ccc2c3c1[C@@H]1O[C@@H]1c1cccc(c1-3)[C@@H]1O[C@H]21 show?
3.76 µM

Bench note: what TGI did CN(C)c1ccc(/C=N/NC(=O)c2cnc3ccccc3c2)cc1 show?
> 100 µM

Bench note: what TGI did CCC(=O)Oc1ccc(/C=N/NC(N)=S)nc1 show?
> 100 µM

Bench note: what TGI did CC(=O)Nc1cc(CN2CCCCC2)c(O)c2ncccc12 show?
> 100 µM

Bench note: what TGI did COc1ccc2oc3c(ccc[n+]3C)c(=O)c2c1 show?
> 100 µM

Bench note: what TGI did CCCNC(=O)c1cc(NC(=O)c2cc(NC(=O)CCS(=O)(=O)OC)cn2C)cn1C show?
> 100 µM

Bench note: what TGI did COc1cc(OC)cc(Oc2nc3c(N)cc(C(F)(F)F)cc3nc2-c2ccccc2)c1 show?
> 100 µM

Bench note: what TGI did C=C1C(OCCO)OC2O[C@]3(C)CCC4[C@H](C)CCC1C24OO3 (stereo partly specified) show?
> 100 µM

Bench note: what TGI did CCN1C(=O)N(CC)C2C1NN=c1s/c(=C\c3cnc(C)n3C)c(=O)n12 (stereo unspecified) show?
> 100 µM

----------
Tested on: TK-10 renal
Experiment: NCI tumour cell line growth inhibition, 48 h
For each entry below, report its GI50 value.

Bench note: what GI50 did NC(N)=N/N=C/c1ccc(Br)cc1 show?
7.44 µM

Bench note: what GI50 did CSc1nc(-c2cccc(NC(=O)CCl)c2)c(C#N)c(=O)n1C show?
2.38 µM

Bench note: what GI50 did CCC(=O)Oc1ccc(/C=N/NC(N)=S)nc1 show?
49 µM
